Target: T1, mouse recombinant TGF-β2 (mouse, UniProt P27090 303-414)
T1 sequence (looked up): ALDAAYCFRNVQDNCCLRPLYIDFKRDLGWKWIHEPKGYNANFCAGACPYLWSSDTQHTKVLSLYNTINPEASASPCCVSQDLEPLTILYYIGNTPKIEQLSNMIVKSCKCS
Assay: cell-based or functional assay
Give measured CK (IC 50 [pM]), Skeletal Muscle Cell Differentiation Assay (Creatine Kinase) for each item. Keep answers brief.
Provide the reading as a plain figure in pM.

Exercise: Fill blank: measured CK (IC 50 [pM]), Skeletal Muscle Cell Differentiation Assay (Creatine Kinase) of the binder MOR14809 (antibody, human IgG1, lambda, V domains shown) VH: QVQLVQSGAEVKKPGESLKISCKGSGYSFTRYWIAWVRQMPGKGLEWMGIIDPGTSDTRYSPSFQGQVTISADKSISTAYLQWSSLKASDTAMYYCARIDKSLILHSAFDYWGQGTLVTVSS VL: SYELTQPLSVSVALGQTARITCSGDNLGGYYAYWYQQKPGQAPVLVIYETNNRPSGIPERFSGSNSGNTATLTISRAQAGDEADYYCASTTQDYLVFVFGGGTKLTVLG is ____.
Solution: 800

Exercise: Fill blank: measured CK (IC 50 [pM]), Skeletal Muscle Cell Differentiation Assay (Creatine Kinase) of the binder MOR14799 (antibody, human IgG1, lambda, V domains shown) VH: QVQLVQSGAEVKKPGESLKISCKGSGYSFTRYYVAWVRQMPGKGLEWMGWIDPGQSNTRYSPSFQGQVTISADKSISTAYLQWSSLKASDTAMYYCARMLAWGWFDYWGQGTLVTVSS VL: SYELTQPLSVSVALGQTARITCSGDNLGGYYAHWYQQKPGQAPVLVIYDKSDRPSGIPERFSGSNSGNTATLTISRAQAGDEADYYCASYDSSLMMVFGGGTKLTVLG is ____.
Solution: 909

Exercise: Fill blank: measured CK (IC 50 [pM]), Skeletal Muscle Cell Differentiation Assay (Creatine Kinase) of the binder MOR14797 (antibody, human IgG1, kappa, V domains shown, (no LALA)) VH: QVTLRESGPALVKPTQTLTLTCTFSGFSLSTSGMGVGWIRQPPGKALEWLAHIYWNDDKSYSTSLKTRLTISKDTSKNQVVLTMTNMDPVDTATYYCARDFYYSGYFDSWGQGTLVTVSS VL: DIQMTQSPSSLSASVGDRVTITCRASQDISNYLNWYQQKPGKAPKLLIFGASSLQSGVPSRFSGSGSGTDFTLTISSLQPEDFATYYCQQTNTMNTFGQGTKVEIKR is ____.
Solution: 1500

Exercise: Fill blank: measured CK (IC 50 [pM]), Skeletal Muscle Cell Differentiation Assay (Creatine Kinase) of the binder MOR14800 (antibody, human IgG1, lambda, V domains shown) VH: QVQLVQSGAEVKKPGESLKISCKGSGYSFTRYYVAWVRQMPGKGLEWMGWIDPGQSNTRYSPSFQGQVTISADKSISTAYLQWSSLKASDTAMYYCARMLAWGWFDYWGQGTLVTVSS VL: SYELTQPLSVSVALGQTARITCSGDNLGGYYAHWYQQKPGQAPVLVIYDTSDRPSGIPERFSGSNSGNTATLTISRAQAGDEADYYCASYDSSLMMVFGGGTKLTVLG is ____.
Solution: 1200

Exercise: Fill blank: measured CK (IC 50 [pM]), Skeletal Muscle Cell Differentiation Assay (Creatine Kinase) of the binder MOR14805 (antibody, human IgG1, lambda, V domains shown) VH: QVQLVQSGAEVKKPGESLKISCKGSGYSFTRYYVAWVRQMPGKGLEWMGWIDPGTSNTRYSPSFQGQVTISADKSISTAYLQWSSLKASDTAMYYCARMLAWGWFDYWGQGTLVTVSS VL: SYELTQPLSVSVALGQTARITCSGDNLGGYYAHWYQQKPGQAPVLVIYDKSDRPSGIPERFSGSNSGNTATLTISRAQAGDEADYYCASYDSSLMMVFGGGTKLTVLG is ____.
Solution: 629

Exercise: Fill blank: measured CK (IC 50 [pM]), Skeletal Muscle Cell Differentiation Assay (Creatine Kinase) of the binder MOR14787 (antibody, human IgG1, kappa, V domains shown) VH: QVQLVQSGAEVKKPGSSVKVSCKASGGTFSSYAISWVRQAPGQGLEWMGVIVPKWGHPQYAQKFQGRVTITADESTSTAYMELSSLRSEDTAVYYCAREGDFVVLVLTEHYMGGFDVWGQGTLVTVSS VL: DIQMTQSPSSLSASVGDRVTITCRASQSIDEYLNWYQQKPGKAPKLLIYAGSNLQSGVPSRFSGSGSGTDFTLTISSLQPEDFATYYCLQGYSYPRTFGQGTKVEIKR is ____.
Solution: 3000

Measured values drawn from patent US20190092846A1 for this set.
